# tested on: Glucocorticoid receptor (Homo sapiens)
# procedure details: GR-GFP Redistribution (AID 450); further: potency means the concentration at half of the fitted maximal effect
# particulars: U2OS GR-GFP nuclear translocation, laser cytometry, 2 h
The source made the active and inactive calls.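 How the source made its calls: active means compounds whose dose series gives a full or clear partial fitted curve of increased nuclear translocation; inconclusive means weak partial curve or effect only at the top dose; inactive means no dose-dependent translocation response.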
Let's look at some molecules and their measured Potency.
endpoint name: Potency

COc1ccc(-n2c(=O)c(-c3cn(C)c4ccccc34)nc3cnc(N4CCOCC4)nc32)cc1	> 9.22 µM (inactive)
Cc1nc2cnc(N3CCOCC3)nc2n(CCC#N)c1=O	> 9.22 µM (inactive)
COCCNc1ncnc2ccc(-c3ccccc3C)cc12	> 46 µM (inactive)
Clc1ccccc1-c1nc(N2CCNCC2)c2ccccc2n1	> 46 µM (inactive)
Cc1nc2cnc(OCc3ccccc3)nc2n(C)c1=O	> 9.22 µM (inactive)
CN(C)c1ncc2nc(-c3ccc(F)cc3)c(=O)n(Cc3ccc(F)cc3)c2n1	> 9.22 µM (inactive)
COc1cccc(Cn2c(=O)c(-c3cccc(C#N)c3)nc3cnc(N4CCN(C)CC4)nc32)c1	> 9.22 µM (inactive)
FC(F)(F)c1ccccc1-c1nc(NC2CCNCC2)c2ccccc2n1	> 46 µM (inactive)
CN(C)C(=O)c1ccc(-c2ccc3ncnc(N(C)C)c3c2)cc1	> 46 µM (inactive)
COCCn1c(=O)c(-c2cccc(C#N)c2)nc2cnc(OC)nc21	> 9.22 µM (inactive)
c1cncc(CNc2ccnc(-c3ccc4c(c3)OCO4)n2)c1	> 46 µM (inactive)
Cc1cnc(CNc2ncnc3ccc(-c4c(C)noc4C)cc23)cn1	> 46 µM (inactive)
Cc1noc(C)c1-c1cc(NC2CCNCC2)ncn1	> 46 µM (inactive)
CN(C)c1ncc2nc(-c3cn(C)c4ccccc34)c(=O)n(C[C@H]3CCCO3)c2n1	> 9.22 µM (inactive)
COc1ccc(-c2nc3cnc(N4CCOCC4)nc3n(C[C@H]3CCCO3)c2=O)cc1	> 9.22 µM (inactive)
CNc1nc(-c2ccc3c(c2)OCO3)nc2ccccc12	> 46 µM (inactive)
CC(=O)NCCNc1ncnc2ccc(-c3ccoc3)cc12	> 46 µM (inactive)
CN1CCN(c2ncc3nc(CCc4ccccc4)c(=O)n(C4CC4)c3n2)CC1	> 9.22 µM (inactive)
COc1ccccc1-c1nccc(-n2ccnc2)n1	> 46 µM (inactive)
CCNc1ncc2nc(-c3cn(C)c4ccccc34)c(=O)n(-c3ccc(OC)cc3)c2n1	> 9.22 µM (inactive)
Cc1noc(C)c1-c1ccc2ncnc(NC3CCNCC3)c2c1	> 46 µM (inactive)
Cn1cc(-c2nc3cnc(N4CCNCC4)nc3n(C)c2=O)c2ccccc21	> 9.22 µM (inactive)
CN(C)c1ncnc2ccc(-c3cccnc3)cc12	> 46 µM (inactive)

###

# procedure details: NFAT Signaling Pathway (AID 444);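 further: carbachol stimulus at about its EC50 of 1 µM final; on the % scale 0 is the no-effect control and ±100 the full control effect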
# particulars: Jurkat NFAT-bla M1, carbachol, beta-lactamase ratio, 5 h; at 7.69 µM (top of the series) unless noted
Inconclusive results are not listed. Calls of active or inactive are those of the source. Calls come from the whole dose curve; as a rule, active = well fitted curve in either direction with a large enough effect (not every such curve was filed as active); inconclusive = small, poorly fitted or top-dose-only effect, or another doubt; inactive = flat fitted curve, though single readings scatter.
Possible outcomes: t (active), f (inactive)

COC(=O)N1CCC2(CCCN(C(=O)Nc3cccc(F)c3)C2)CC1	f
CN1CCN(c2ncnc3ccc(-c4ccc5c(c4)OCO5)cc23)CC1	f
CS(=O)(=O)N1CCC[C@@]2(CCN(C(=O)Nc3cccc(F)c3)C2)C1	f
c1csc(CNc2ncnc3ccc(-c4ccoc4)cc23)c1	f
O=c1cnc2cncnc2n1Cc1ccccc1	f
CN1CCN(c2ncc3nc(-c4cc(F)cc(F)c4)c(=O)n(Cc4cccs4)c3n2)CC1	t
COc1ncc2nc(CCc3ccccc3)c(=O)n(C3CC3)c2n1	f
FC(F)(F)c1ccccc1-c1ccc2ncnc(NCc3cccnc3)c2c1	f
COc1ccccc1-c1ccc2ncnc(NC3CCNCC3)c2c1	f
CN(C)c1ncc2nc(-c3ccc(F)cc3)c(=O)n(Cc3cccs3)c2n1	f
c1cncc(CNc2ncncc2-c2ccc3c(c2)OCO3)c1	f
Cn1cccc1C(=O)N1CCC[C@@]2(CCN(Cc3ccccc3)C2)C1	f
COc1ccccc1CN1CC2(CCN(S(C)(=O)=O)CC2)C1	f
N#CCCn1c(=O)cnc2cnc(N3CCOCC3)nc21	f
COc1ccc(CNc2ccnc(-c3ccc4c(c3)OCO4)n2)c(OC)c1	f
Cc1nc2cnc(Nc3ccccc3)nc2n(Cc2ccc(F)cc2)c1=O	f
CN(Cc1ccco1)c1ncnc2ccc(-c3cccc(C#N)c3)cc12	f
COc1ccc(Oc2ncc3nc(-c4ccccc4)c(=O)n(C4CC4)c3n2)cc1	f
CN1CCN(c2cc(-c3ccccc3C(F)(F)F)ncn2)CC1	f
Cc1ccccc1-c1cncnc1Nc1ccc(F)cc1	f
COc1ccc(-n2c(=O)c(-c3cn(C)c4ccccc34)nc3cnc(OC)nc32)cc1	f
COc1cccc(-c2ccc3ncnc(NCc4cccnc4)c3c2)c1	f
Cc1noc(C)c1C(=O)N1CCC[C@@]2(CCN(c3ccccc3)C2)C1	f

###

# tested on: Calcium and integrin-binding protein 1 (Homo sapiens)
# procedure details: Primary qHTS for Identification of Calcium Integrin Binding Protein 1 (CIB1) Competitor (AID 1508620);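 further: GST tagged CIB1 binding a fluorescein labelled alphaIIb integrin peptide tracer; top concentration of the series differs between compounds; on the % scale 0 is the no-effect control and ±100 the full control effect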
# particulars: CIB1-GST / FITC-alphaIIb peptide fluorescence polarization; series mostly up to 114 µM
Records with an inconclusive call do not appear. Calls of active or inactive are those of the source. Calls follow the shape of the dose curve; as a rule, active = well fitted inhibition curve with a large enough effect; inconclusive = small, poorly fitted or top-dose-only effect; inactive = flat fitted curve, though single readings scatter.
endpoint name: outcome

COc1cc(F)c(S(=O)(=O)N2CCN(S(=O)(=O)c3ccc(NC(C)=O)cc3)CC2)c(F)c1	inactive
O=C1CCCC2=C1C(c1[nH]ncc1Cl)NC(=NCc1nccs1)N2 (stereo not given)	inactive
Cc1ccnc(NC(=S)N2CC3CN(c4ncc(C(F)(F)F)cc4Cl)CC3C2)c1 (stereo not given)	inactive
CC(C)(C)OC(=O)N1CCN(c2ccc(NCc3cc(-c4ccc(C#N)cc4)co3)cc2)CC1	inactive
COc1ccccc1NC(=O)c1ccc2ccccc2c1	inactive
NC(=O)c1cccc(-c2noc(-c3ccccc3C(F)(F)F)n2)c1	inactive
FC(F)(F)c1cccc(N2CCN(C(=S)Nc3ncnc4ccccc34)CC2)c1	inactive
CC1CCC(C(=O)Nc2ccc([S+](=O)([O-])Nc3nccs3)cc2)CC1 (stereo not given)	inactive
O=C(Nc1ccc(Cl)c([N+](=O)[O-])c1)Nc1nnc(C2CCCCC2)s1	inactive
S=C(Nc1ccc(Cl)c(Cl)c1)Nc1nnc(-c2ccncc2)s1	inactive

###

# tested on: N-terminal Xaa-Pro-Lys N-methyltransferase 1 (Homo sapiens) (UniProt Q9BV86)
# Sequence (Q9BV86 whole entry, looked up): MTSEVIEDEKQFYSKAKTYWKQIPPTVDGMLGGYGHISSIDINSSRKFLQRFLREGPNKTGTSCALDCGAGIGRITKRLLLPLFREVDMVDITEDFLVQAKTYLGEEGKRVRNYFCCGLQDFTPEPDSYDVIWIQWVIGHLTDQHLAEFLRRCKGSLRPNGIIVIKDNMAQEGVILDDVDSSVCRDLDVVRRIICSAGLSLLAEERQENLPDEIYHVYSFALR
# procedure details: Confirmatory qHTS for Inhibitors of N-terminal methyltransferase 1 (NTMT1): MTaseGlo Assay (AID 1645874); further: nearly all actives have a fitted effect of over 65% in size; further: potency means the concentration at half of the fitted maximal effect
# particulars: NTMT1 enzyme, MTase-Glo SAH luminescence; series mostly up to 100 µM
Inconclusive results are not listed. Active and inactive are the calls of the source. Calls come from the whole dose curve; as a rule, active = well fitted inhibition curve with a large enough effect; inconclusive = small, poorly fitted or top-dose-only effect; inactive = no such curve, though single readings can be large or run the other way.
endpoint name: Potency

NC(=O)C1CCN(c2nc(-c3ccc4c(c3)CCO4)cs2)CC1	inactive
Fc1cc(Nc2nc(-c3ccncc3)nc3ccccc23)ccc1-c1ccc2[nH]ncc2c1	inactive
CC(=O)Nc1sc2c(c1-c1ccc3scnc3c1)CCNC2	44.7 µM (active)
Cc1cc(C)nc(NC(=S)N2CCN(c3ncccc3C#N)CC2)c1	22.4 µM (active)
O=C1Nc2ccc(C(=O)c3ccco3)cc2/C1=C/c1cc(Cl)c(O)c(Cl)c1	2.4 µM (active)
COc1ccc(C2=Nn3c(nnc3-c3ccccc3F)SC2)cc1OC1CCCC1	24.5 µM (active)

###

# procedure details: qHTS Assay for Lipid Storage Modulators (AID 1519)
# particulars: Drosophila S3 cells, BODIPY lipid droplet/cell ratio, laser cytometry; measured here: lipid channel max response; cells loaded with oleic acid
Results filed as inconclusive are left out.
Simple rule here: max response less than 20% is T, otherwise F.

CN(Cc1ccco1)c1ncnc2ccc(-c3ccccc3C(F)(F)F)cc12	T
Cc1nc2cnc(N3CCN(C)CC3)nc2n(Cc2cccs2)c1=O	F
COc1cccc(Nc2ncc3nc(C)c(=O)n(CCc4ccccc4)c3n2)c1	T
CN(C)c1ccc(-c2cc(-n3ccnc3)ncn2)cc1	F
CN(C)c1ncc2nc(-c3cccc(C#N)c3)c(=O)n(CCC#N)c2n1	T
COc1ccccc1CNc1nc(-c2c(C)noc2C)nc2ccccc12	T
Cn1c(=O)c(-c2cc(F)cc(F)c2)nc2cnc(N3CCOCC3)nc21	F
COc1ccccc1-c1cncnc1NCCNC(C)=O	T
CN(C)c1ncc2nc(-c3ccc(F)cc3)c(=O)n(C[C@H]3CCCO3)c2n1	T
CN(C)c1ncc2nc(-c3cccs3)c(=O)n(CCC#N)c2n1	F
FC(F)(F)c1ccccc1-c1nccc(N2CCNCC2)n1	T

###

# procedure details: NFAT Signaling Pathway (AID 444);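 further: carbachol stimulus at about its EC50 of 1 µM final; on the % scale 0 is the no-effect control and ±100 the full control effect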
# particulars: Jurkat NFAT-bla M1, carbachol, beta-lactamase ratio, 5 h; at 7.69 µM (top of the series) unless noted
Records with an inconclusive call do not appear.
endpoint name: activity change, negative = inhibition (%)

O=c1c(-c2ccc(F)cc2)nc2cnc(N3CCOCC3)nc2n1C[C@H]1CCCO1	1.18
COc1ncc2ncc(=O)n(C[C@H]3CCCO3)c2n1	4.03
COc1cccc(Cn2c(=O)c(-c3cccs3)nc3cnc(N(C)C)nc32)c1	23.2
CN(C)c1ncc2nc(CCc3ccccc3)c(=O)n(C[C@H]3CCCO3)c2n1	-1.26
CN1CCN(c2ncc3nc(-c4cc(F)cc(F)c4)c(=O)n(C)c3n2)CC1	5.17
O=C(c1ccncc1)N1CCC2(CC1)CN(c1cccc(-c3ccccc3)c1)C2	7.15
COc1ccc(Oc2ncc3nc(C)c(=O)n(Cc4cccc(OC)c4)c3n2)cc1	6.92
Cn1c(=O)c(-c2ccc(Cl)cc2)nc2cnc(N3CCOCC3)nc21	26.9
CN(C)Cc1ccccc1-c1cc(NC2CC2)ncn1	-10
O=C(c1ccncc1)N1CCC2(CC1)CCN(C(c1ccccc1)c1ccccc1)CC2	-18.3
